system: Saccharomyces cerevisiae; assay: fraction of cells in G1 phase (DNA content, flow cytometry); higher = more cells with unreplicated DNA (G1 delay); conditions: temperature: 30 C; YPD; JTY2953 pdr5 snq2 (sensitized); drug added to: cultures diluted from stationary phase; 6-7 h
Structures can show the parent of a compound that is named as a salt.
measurement label: fraction of cells in G1 phase

>>> df
                                   molecule  experimental_value
0  CC1=Nc2ccc(Cl)cc2S(=O)(=O)N1 [Diazoxide] (86.7024 µM)               0.516
1  CC#CCC(C)[C@H](O)/C=C/[C@@H]1[C@H]2C/C(=C/CCCC(=O)O)C[C@H]2C[C@H]1O (some centres undefined) [Iloprost] (55.4788 µM)               0.481
2  NCCCC(O)(P(=O)(O)O)P(=O)(O)O [Alendronate] (80.6158 µM)               0.456
3  CN(C)CCOC(c1ccccc1)c1ccccc1 [Diphenhydramine HCl] (78.3199 µM)               0.446

---

tested on: Saccharomyces cerevisiae; experiment: fraction of cells in G1 phase (DNA content, flow cytometry); higher = more cells with unreplicated DNA (G1 delay); details: temperature: 30 C; YPD; JTY2953 pdr5 snq2 (sensitized); drug added to: cultures diluted from stationary phase; 6-7 h
Where a name gives a salt, the structure may show the parent alone.
Property: fraction of cells in G1 phase; scope: individual molecules

molecule	test system	fraction of cells in G1 phase
CC(N/C(=N\C#N)Nc1ccncc1)C(C)(C)C (centres undefined) [Pinacidil] (81.5229 µM)	Saccharomyces cerevisiae	0.51
Nc1c2c(nc3ccccc13)CCCC2 [Tacrine HCl] (100.873 µM)	Saccharomyces cerevisiae	0.541
COc1ccc(CCN(C)CCCC(C#N)(c2ccc(OC)c(OC)c2)C(C)C)cc1OC (centres undefined) [Verapamil] (40.7249 µM)	Saccharomyces cerevisiae	0.507
Clc1ccc2c(c1)C(N1CCNCC1)=Nc1ccccc1O2 [Amoxapine] (63.737 µM)	Saccharomyces cerevisiae	0.581
COc1cc(Cc2cnc(N)nc2N)cc(OC)c1OC [Trimethoprim] (68.8884 µM)	Saccharomyces cerevisiae	0.486
CCn1cc(C(=O)O)c(=O)c2cc(F)c(N3CCNC(C)C3)c(F)c21 (centres undefined) [Lomefloxacin HCl] (56.9223 µM)	Saccharomyces cerevisiae	0.489
CNCCC(Oc1ccccc1OC)c1ccccc1 (centres undefined) [Nisoxetine HCl] (73.7022 µM)	Saccharomyces cerevisiae	0.511
CCCc1nc(C)c2c(=O)nc(-c3cc(S(=O)(=O)N4CCN(CC)CC4)ccc3OCC)[nH]n12 [Vardenafil] (40.9322 µM)	Saccharomyces cerevisiae	0.511
NC1CCN(c2nc3c(cc2F)c(=O)c(C(=O)O)cn3-c2ccc(F)cc2F)C1 (centres undefined) [Tosufloxacin] (49.4619 µM)	Saccharomyces cerevisiae	0.428
CN1CCN2c3ccccc3Cc3ccccc3C2C1 (centres undefined) [Mianserin hcl] (75.6505 µM)	Saccharomyces cerevisiae	0.471
CN[C@@H]1[C@H](O[C@H]2[C@H](O[C@H]3[C@H](O)[C@@H](O)[C@H](N=C(N)N)[C@@H](O)[C@@H]3N=C(N)N)O[C@@H](C)[C@]2(O)C=O)O[C@@H](CO)[C@H](O)[C@H]1O [Streptomycin sulfate] (34.3888 µM)	Saccharomyces cerevisiae	0.478
COc1cc(-c2ccc(=O)[nH]n2)ccc1OC(F)F [Zardaverine] (74.5651 µM)	Saccharomyces cerevisiae	0.566
CCCCn1c(=O)c2c(ncn2CC(C)=O)n(CCCC)c1=O [Denbufylline] (62.423 µM)	Saccharomyces cerevisiae	0.517
CC(C(=O)O)c1cccc(Oc2ccccc2)c1 (centres undefined) [Fenoprofen] (82.5501 µM)	Saccharomyces cerevisiae	0.502
O=C(O)c1cc(=O)c2c(OCC(O)COc3cccc4oc(C(=O)O)cc(=O)c34)cccc2o1 [Disodium cromoglycate] (39.0365 µM)	Saccharomyces cerevisiae	0.529
C[C@H]1O[C@@H](n2cc(F)c(=O)[nH]c2=O)[C@H](O)[C@@H]1O [Doxifluridine] (81.2358 µM)	Saccharomyces cerevisiae	0.479
C[C@H]1[C@H](OC(=O)CCC(=O)O)O[C@@H]2O[C@@]3(C)CC[C@H]4[C@H](C)CC[C@@H]1[C@@]24OO3 [Artesunate] (52.025 µM)	Saccharomyces cerevisiae	0.556
CCCSc1ccc2[nH]c(NC(=O)OC)nc2c1 [Albendazole] (75.3761 µM)	Saccharomyces cerevisiae	0.475
COc1cc2c(cc1OC)C(=O)C(CC1CCN(Cc3ccccc3)CC1)C2 (centres undefined) [Donepezil HCl] (48.0769 µM)	Saccharomyces cerevisiae	0.515
CN/C(=N\c1ccc(C2=NNC(=O)CC2C)cc1)NC#N (centres undefined) [Siguazodan] (70.3425 µM)	Saccharomyces cerevisiae	0.493
CC(C)NCC(O)c1ccc(NS(C)(=O)=O)cc1 (centres undefined) [Sotalol HCl] (73.4298 µM)	Saccharomyces cerevisiae	0.535
COc1ccc([C@@H]2Sc3ccccc3N(CCN(C)C)C(=O)[C@@H]2OC(C)=O)cc1 [Diltiazem] (44.3459 µM)	Saccharomyces cerevisiae	0.544
CC(=O)Oc1ccc(C(c2ccc(OC(C)=O)cc2)c2ccccn2)cc1 [Bisacodyl] (55.3402 µM)	Saccharomyces cerevisiae	0.499
C[N+](C)(C)[C@@H](Cc1c[nH]c(=S)[nH]1)C(=O)[O-] [Ergothioneine] (87.2209 µM)	Saccharomyces cerevisiae	0.464
CN(C)CCC=C1c2ccccc2CCc2ccccc21 [Amitriptyline HCl] (63.7146 µM)	Saccharomyces cerevisiae	0.418
CC(C)OC(=O)CCC/C=C\C[C@@H]1[C@@H](CC[C@@H](O)CCc2ccccc2)[C@H](O)C[C@@H]1O [Latanoprost] (46.2315 µM)	Saccharomyces cerevisiae	0.528
CC[C@@]1(O)C(=O)OCc2c1cc1n(c2=O)Cc2cc3c(CN(C)C)c(O)ccc3nc2-1 [Topotecan] (47.4544 µM)	Saccharomyces cerevisiae	0.481
CO[C@H]1C[C@@H]2CC[C@@H](C)[C@@](O)(O2)C(=O)C(=O)N2CCCC[C@H]2C(=O)O[C@H]([C@H](C)C[C@@H]2CC[C@@H](O)[C@H](OC)C2)CC(=O)[C@H](C)/C=C(\C)[C@@H](O)[C@@H](OC)C(=O)[C@H](C)C[C@H](C)/C=C/C=C/C=C/1C [Rapamycin] (21.8771 µM)	Saccharomyces cerevisiae	0.701
O=C1CCc2ccc(OCCCCN3CCN(c4cccc(Cl)c4Cl)CC3)cc2N1 [Aripiprazole] (44.6034 µM)	Saccharomyces cerevisiae	0.854

---

test system: Saccharomyces cerevisiae; experiment: fraction of cells in G1 phase (DNA content, flow cytometry); higher = more cells with unreplicated DNA (G1 delay); settings: temperature: 30 C; YPD; JTY2953 pdr5 snq2 (sensitized); drug added to: cultures diluted from stationary phase; 6-7 h
Reported fraction of cells in G1 phase values for the following molecules.

molecule	fraction of cells in G1 phase
CC1=C(/C=C/C(C)=C/C=C/C(C)=C/C(=O)Nc2ccc(O)cc2)C(C)(C)CCC1 [Fenretinide] (51.0779 µM)	0.604
CCCCc1nc(Cl)c(CO)n1Cc1ccc(-c2ccccc2-c2nnn[nH]2)cc1 [Losartan potassium] (43.3825 µM)	0.487
CC[C@H]1OC(=O)[C@H](C)[C@@H](O[C@H]2C[C@@](C)(OC)[C@@H](O)[C@H](C)O2)[C@H](C)[C@@H](O[C@@H]2O[C@H](C)C[C@H](N(C)C)[C@H]2O)[C@](C)(OC)C[C@@H](C)C(=O)[C@H](C)[C@@H](O)[C@]1(C)O [Clarithromycin] (26.7389 µM)	0.489

---

tested on: Saccharomyces cerevisiae; assay: fraction of cells in G1 phase (DNA content, flow cytometry); higher = more cells with unreplicated DNA (G1 delay); settings: temperature: 30 C; YPD; JTY2953 pdr5 snq2 (sensitized); drug added to: cultures diluted from stationary phase; 6-7 h
Class satisfied: fraction of cells in G1 phase at least 0.5. Class not satisfied: fraction of cells in G1 phase below 0.5.

compound	class name
CCc1nn(CCCN2CCN(c3cccc(Cl)c3)CC2)c(=O)n1CCOc1ccccc1 [Nefazodone] (42.5515 µM)	satisfied
CC(=O)O[C@H]1C[C@@H]2CC[C@@H]3[C@H](CC[C@@]4(C)[C@H]3C[C@H]([N+]3(C)CCCCC3)[C@@H]4OC(C)=O)[C@@]2(C)C[C@@H]1N1CCCCC1 [Vecuronium Br] (35.8523 µM)	not satisfied
CC(C)NCC(O)COc1cccc2ccccc12 (stereo not drawn) [Propranolol] (77.1155 µM)	not satisfied
CCCCC[C@H](O)/C=C/[C@@H]1[C@@H](C/C=C\CCCC(=O)O)[C@@H](O)C[C@H]1O [Dinoprost] (56.4189 µM)	satisfied
COC(=O)Nc1nc2cc([S+]([O-])c3ccccc3)ccc2[nH]1 (stereo not drawn) [Oxfendazole] (63.421 µM)	satisfied
C#C[C@]1(O)CC[C@H]2[C@@H]3[C@H](C)CC4=C(CCC(=O)C4)[C@H]3CC[C@@]21C [Tibolone] (64.009 µM)	satisfied
N#Cc1ccc(C(c2ccc(C#N)cc2)n2cncn2)cc1 [Letrozole] (70.099 µM)	satisfied
CC[C@@]1(O)C[C@H](O[C@H]2C[C@H](N(C)C)[C@H](O[C@H]3C[C@H](O)[C@H](O[C@H]4CCC(=O)[C@H](C)O4)[C@H](C)O3)[C@H](C)O2)c2c(cc3c(c2O)C(=O)c2c(O)cccc2C3=O)[C@H]1C(=O)OC [Aclarubicin] (24.6339 µM)	not satisfied

Recorded values, source the supplement of paper PMC3342239.
